assayedTarget: Protein farnesyltransferase (Bos taurus, UniProt P29702+P49355)
protocolDescription: In vitro inhibition of farnesyltransferase from bovine brain
measuredQuantity: pIC50
In simple prose, pIC50 is minus the logarithm base ten of a concentration in moles per litre.

Entry COc1ccc(-c2cc(COc3cccnc3)ccc2C(=O)N[C@@H](CCSC)C(=O)O)cc1 , tested on Protein farnesyltransferase (Bos taurus, UniProt P29702+P49355), has a reported pIC50 of 6.64

Entry CSCC[C@H](NC(=O)c1ccc(NC(=O)c2cccnc2)cc1-c1ccccc1)C(=O)O , tested on Protein farnesyltransferase (Bos taurus, UniProt P29702+P49355), has a reported pIC50 of 7.15

Entry CSCC[C@@H](NC(=O)c1ccc(CNc2cccnc2)cc1-c1ccccc1)C(=O)O , tested on Protein farnesyltransferase (Bos taurus, UniProt P29702+P49355), has a reported pIC50 of 6.85

Entry COCC[C@H](NC(=O)c1ccc(COc2cccnc2)cc1-c1ccccc1)C(=O)O , tested on Protein farnesyltransferase (Bos taurus, UniProt P29702+P49355), has a reported pIC50 of 6.00

====

assayedTarget: Protein farnesyltransferase (Bos taurus, UniProt P29702+P49355)
protocolDescription: In vitro inhibition of farnesyltransferase from bovine brain
measuredQuantity: log10 of IC50 (log10 of the value in µM)
# log10 transformed; quantity=IC50; unit=µM

Study these solved cases before continuing.
smilesInput	log10 of IC50
CSCC[C@H](NC(=O)c1ccc(COc2cccnc2)cc1-c1ccc(C)cc1)C(=O)O	-0.44
COc1ccccc1-c1cc(COc2cccnc2)ccc1C(=O)N[C@@H](CCSC)C(=O)O	-2.48
CSCC[C@H](NC(=O)c1ccc(NCc2cccnc2)cc1-c1ccccc1)C(=O)O	-1.70

Value of log10 of IC50 reported for the compound CSCC[C@H](NC(=O)c1ccc(NCc2cccnc2)cc1-c1ccccc1C)C(=O)O is -2.82

Value of log10 of IC50 reported for the compound CSCC[C@H](NC(=O)c1ccc(NC(=O)c2cccnc2)cc1-c1ccccc1C)C(=O)O is -2.80

Value of log10 of IC50 reported for the compound COc1cccc(-c2cc(COc3cccnc3)ccc2C(=O)N[C@@H](CCSC)C(=O)O)c1 is -1.92

Value of log10 of IC50 reported for the compound CS(=O)(=O)CC[C@H](NC(=O)c1ccc(CNc2cccnc2)cc1-c1ccccc1)C(=O)O is -1.77

Value of log10 of IC50 reported for the compound CSCC[C@H](NC(=O)c1ccc(COc2cccnc2)cc1-c1ccccc1)C(=O)O is -2.37

====

assayedTarget: Protein farnesyltransferase (Bos taurus, UniProt P29702+P49355)
protocolDescription: In vitro inhibition of farnesyltransferase from bovine brain
measuredQuantity: IC50 (nM)
# unit: nM | format: bare number

Study these solved cases before continuing.
smilesInput	IC50 / nM
CCc1ccccc1-c1cc(COc2cccnc2)ccc1C(=O)N[C@@H](CCSC)C(=O)O	0.35
CSCC[C@@H](C(=O)O)N(C)C(=O)c1ccc(CNc2cccnc2)cc1-c1ccccc1	160
CSCC[C@H](NC(=O)c1ccc(CNc2cccnc2)cc1-c1ccccc1)C(=O)O	6.8
CSCC[C@H](NC(=O)c1ccc(OCc2cccnc2)cc1-c1ccccc1)C(=O)O	6.6
CSCC[C@H](NC(=O)c1ccc(COc2cccnc2)cc1-c1ccccc1C(F)(F)F)C(=O)O	0.5
NC(=O)CC[C@H](NC(=O)c1ccc(COc2cccnc2)cc1-c1ccccc1)C(=O)O	48
CSCC[C@H](NC(=O)c1ccc(CS(=O)(=O)c2cccnc2)cc1-c1ccccc1)C(=O)O	550

Please find the next compound below.
Value of IC50 reported for the compound CSCC[C@H](NC(=O)c1ccc(COc2cccnc2)cc1-c1ccccc1C)C(=O)O is 0.4

====

assayedTarget: Protein farnesyltransferase (Bos taurus, UniProt P29702+P49355)
protocolDescription: In vitro inhibition of farnesyltransferase from bovine brain
Overview of recorded pIC50 for various molecules
In simple prose, pIC50 is minus the logarithm base ten of a concentration in moles per litre.

Study these solved cases before continuing.
smilesInput	measuredQuantity	measuredNumber
CSCC[C@H](NC(=O)c1ccc(COc2cccnc2)cc1-c1ccccc1Cl)C(=O)O	pIC50	9.21
CSCC[C@H](NC(=O)c1ccc(CSc2cccnc2)cc1-c1ccccc1C)C(=O)O	pIC50	9.16
CSCC[C@H](NC(=O)c1ccc(COc2cccnc2)cc1-c1cccc(C)c1)C(=O)O	pIC50	8.27

Please find the next molecule below.
Value of pIC50 reported for the molecule CSCC[C@H](NC(=O)c1ccc(CSc2cccnc2)cc1-c1ccccc1)C(=O)O is 8.00
